Experiment: amyloid nucleation score (Sup35N fusion, yeast selection) (log enrichment); library NNK3; higher = more nucleation; inactive = no reads after selection;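 note: zero at mode of non-aggregating sequences after 7 days selection at 30°C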
READOUT TYPE: amyloid nucleation score

• TMNLCS = inactive
• WMFLDTSGDIMPRGLTDYLE = inactive
• NWLDWLGRPPRDIGAWNGSS = inactive
• KFKSRGRSTMLLVFNIVWRV = -0.476
• YILNITNLWSLCLCRLCRKD = 3.08
• VYWHVWVALSCFMPANIGVV = inactive
• WMDRLFVSVTAVWRQPDVGI = 1.42
• NVIMVFVLCCFWCEGTQKHV = 1.83
• GLWNDCKRWLRRS = inactive
• NMYSISTLHRKLADPVCSV = inactive
• GVVSCHSFSRRRKALRGYSS = inactive
• IVQAFVSVLSY = inactive
• AMTCNDYSRYVF = inactive
• IAAQSRRVGRCDIASLQLLE = inactive
• SADNLDKFRLEMPVSLVRLN = inactive
• PSVWFFSTETFMVRCPADC = 0.549
• STRRILCIP = -0.381
• QLFTVTLQLTLLSKIDTANL = 1.03
• RRMAETKHGAPMQRVLK = inactive
• MLHASV = inactive
• SLVIAQARANRNILLLTVAR = inactive
• FGSCSEVFSYVAYLRGINDF = inactive
• LINSNVNTVSLFIPFSRMED = 1.58
• FELPMHTGV = inactive
• TCHLPAQSLLFIRCSTKAGV = inactive
• GFGDRMDNPSVVSK = inactive
• NLNRSLVFFSCDYAGCDGCT = 1.48
• ETRFWNLIHADYIRMIGAGF = inactive
• PTAESPLMPFNA = -0.478
• NEIMVTLHNV = inactive
• GNFMNNGRLVASPLLREVCC = inactive
• TRKDDFDLSGCSR = inactive
• FIFHNHVFFDLSNMFRYYVY = 1.92
• HEIPETQFCSIWFDSVCWCL = inactive
• YIQSNCEFMHPVCIIIFACV = 1.16
• NSDVYVSFLSVCVFAVRCLL = inactive
